A collection of molecules and their measured inhibition of growth at 25 µM
# METHOD_SUMMARY: Cytotoxicity against human H460 cells assessed as growth inhibition at 25 uM after 72 hrs by MTT assay relative to control
# Assay type: functional
# RECORDED_CONDITIONS: NCI-H460, 72 h, read-out: GI
Only the number, expressed in %, is required.

>  <MOLECULE>
CCc1ccc(CCNC(=O)c2cc(Br)c(Br)[nH]2)cc1

>  <SCALE_UNIT>
%

>  <inhibition of growth at 25 µM>
23

$$$$
>  <MOLECULE>
COc1ccc(CNC(=O)c2ccc[nH]2)cc1

>  <SCALE_UNIT>
%

>  <inhibition of growth at 25 µM>
2

$$$$
>  <MOLECULE>
Nc1ncc(/C=C/CNC(=O)c2cc(Br)c(Br)[nH]2)[nH]1 [OROIDIN]

>  <SCALE_UNIT>
%

>  <inhibition of growth at 25 µM>
7

$$$$
>  <MOLECULE>
O=C(NCCc1ccccc1)c1cc(Br)c(Br)[nH]1

>  <SCALE_UNIT>
%

>  <inhibition of growth at 25 µM>
19

$$$$
>  <MOLECULE>
O=C(NCCc1c[nH]cn1)c1ccc[nH]1

>  <SCALE_UNIT>
%

>  <inhibition of growth at 25 µM>
0

$$$$

## Input Could you tell me which inhibition of growth at 25 µM is on file for "O=C(NCCc1ccc2ccccc2c1)c1cc(Br)c(Br)[nH]1" ?
## Output 12

## Input Given "O=C(NCC(c1ccccc1)c1ccccc1)c1ccc[nH]1" , state its recorded inhibition of growth at 25 µM.
## Output 11

## Input Looking for the measured inhibition of growth at 25 µM of "Cc1nccn1CCCNC(=O)c1cc(Br)c(Br)[nH]1" , can you help?
## Output 22

## Input Which measured inhibition of growth at 25 µM value corresponds to "O=C(NCCc1ccccc1)c1ccc[nH]1" ?
## Output 5

## Input I am curious: what inhibition of growth at 25 µM value has been reported for "O=C(NCCc1ccc(O)cc1)c1ccc[nH]1" ?
## Output 2

## Input // lookup inhibition of growth at 25 µM for "O=C(NCCCc1ccccc1)c1cc(Br)c(Br)[nH]1"
## Output 25

## Input Dear colleague, I am looking for the recorded inhibition of growth at 25 µM of the following molecule: "O=C(NCCc1c[nH]cn1)c1cc(Br)c(Br)[nH]1"
## Output 35

## Input For "O=C(NCc1ccccc1)c1cc(Br)c(Br)[nH]1" , what is its reported inhibition of growth at 25 µM?
## Output 43

## Input I am curious: what inhibition of growth at 25 µM value has been reported for "Cc1nccn1CCCNC(=O)c1ccc[nH]1" ?
## Output 3

## Input Record request: inhibition of growth at 25 µM value, item "O=C(NCCCn1cccn1)c1cc(Br)c(Br)[nH]1"
## Output 14

## Input For the molecule shown here, "O=C(NCCc1ccc2ccccc2c1)c1ccc[nH]1" , give the reported inhibition of growth at 25 µM.
## Output 23

## Input # lookup: inhibition of growth at 25 µM of "O=C(NCC(c1ccccc1)c1ccccc1)c1cc(Br)c(Br)[nH]1"
## Output 67

## Input // inhibition of growth at 25 µM lookup, key: "O=C(NCc1ccc(Cl)c(Cl)c1)c1ccc[nH]1"
## Output 14

## Input Looking for the measured inhibition of growth at 25 µM of "O=C(NCCCc1ccccc1)c1ccc[nH]1" , can you help?
## Output 13

## Input Fill in the blank: the reported inhibition of growth at 25 µM of "O=C(NCCCCc1ccccc1)c1cc(Br)c(Br)[nH]1" is ____.
## Output 17

## Input Look up inhibition of growth at 25 µM for this molecule: "O=C(NCCc1ccc(O)cc1)c1cc(Br)c(Br)[nH]1"
## Output 11

## Input What value of measured inhibition of growth at 25 µM is listed for "CCc1ccc(CCNC(=O)c2ccc[nH]2)cc1" ?
## Output 3

## Input Fill blank: measured inhibition of growth at 25 µM of the molecule "O=C(NCc1ccc(Cl)cc1)c1cc(Br)c(Br)[nH]1" is ____.
## Output 57

## Input Look at this molecule and give its reported inhibition of growth at 25 µM. "O=C(NCc1ccc(Cl)c(Cl)c1)c1cc(Br)c(Br)[nH]1"
## Output 66

###

# METHOD_SUMMARY: Cytotoxicity against human MIA cells assessed as growth inhibition at 25 uM after 72 hrs by MTT assay relative to control
# Type: functional
# RECORDED_CONDITIONS: read-out: GI
Could you label it T if measured inhibition of growth at 25 µM is 20% or higher, and F otherwise?

>  <CHEMICAL_SMILES>
O=C(NCCCc1ccccc1)c1cc(Br)c(Br)[nH]1

>  <ANSWER_LABEL>
T

$$$$
>  <CHEMICAL_SMILES>
O=C(NCc1ccccc1)c1cc(Br)c(Br)[nH]1

>  <ANSWER_LABEL>
T

$$$$
>  <CHEMICAL_SMILES>
O=C(NCCc1ccccc1)c1ccc[nH]1

>  <ANSWER_LABEL>
F

$$$$
>  <CHEMICAL_SMILES>
O=C(NCCCc1ccccc1)c1ccc[nH]1

>  <ANSWER_LABEL>
F

$$$$
>  <CHEMICAL_SMILES>
O=C(NCCc1ccccc1)c1cc(Br)c(Br)[nH]1

>  <ANSWER_LABEL>
F

$$$$

## Input Please indicate if the recorded inhibition of growth at 25 µM for "COc1ccc(CNC(=O)c2ccc[nH]2)cc1" meets or exceeds 20%.
## Output F

## Input Confirm if inhibition of growth at 25 µM reported for the compound "O=C(NCC(c1ccccc1)c1ccccc1)c1ccc[nH]1" is 20% or above.
## Output T

## Input Does "O=C(NCc1ccc(Cl)cc1)c1ccc[nH]1" have a reported inhibition of growth at 25 µM of at least 20%?
## Output F

## Input Form field: inhibition of growth at 25 µM at least 20%? Entry: "O=C(NCc1ccc(-c2ccccc2)cc1)c1ccc[nH]1"
## Output T

## Input // inclusive: inhibition of growth at 25 µM at least 20%? input: "O=C(NCc1ccc(Cl)c(Cl)c1)c1ccc[nH]1"
## Output F

## Input Does the compound "Cc1nccn1CCCNC(=O)c1cc(Br)c(Br)[nH]1" have recorded inhibition of growth at 25 µM that is 20% or more?
## Output F

## Input In plain terms: is recorded inhibition of growth at 25 µM at least 20% for "Nc1ncc(/C=C/CNC(=O)c2cc(Br)c(Br)[nH]2)[nH]1" ?
## Output T

###

# METHOD_SUMMARY: Cytotoxicity against human SJ-G2 cells assessed as growth inhibition at 25 uM after 72 hrs by MTT assay relative to control
# Assay type: functional
# RECORDED_CONDITIONS: SJ-G2, 72 h, read-out: GI
Returns one of T or F; T when inhibition of growth at 25 µM is >= 20%.

Worked examples, 5 compounds total:
>  <CHEMICAL_SMILES>
Cc1nccn1CCCNC(=O)c1ccc[nH]1

>  <ANSWER_LABEL>
F

$$$$
>  <CHEMICAL_SMILES>
COc1ccc(CNC(=O)c2ccc[nH]2)cc1

>  <ANSWER_LABEL>
F

$$$$
>  <CHEMICAL_SMILES>
O=C(NCCc1c[nH]cn1)c1ccc[nH]1

>  <ANSWER_LABEL>
F

$$$$
>  <CHEMICAL_SMILES>
O=C(NCC(c1ccccc1)c1ccccc1)c1cc(Br)c(Br)[nH]1

>  <ANSWER_LABEL>
T

$$$$
>  <CHEMICAL_SMILES>
O=C(NCCc1c[nH]cn1)c1cc(Br)c(Br)[nH]1

>  <ANSWER_LABEL>
F

$$$$

## Input Exam item: decide whether the reported inhibition of growth at 25 µM for "O=C(NCc1ccc(-c2ccccc2)cc1)c1cc(Br)c(Br)[nH]1" is at least 20%.
## Output F

## Input Entry "O=C(NCCCn1cccn1)c1ccc[nH]1" : is its inhibition of growth at 25 µM no less than 20%?
## Output F

## Input API: above_or_equal(metric=inhibition of growth at 25 µM, cutoff=20%) for item "CCc1ccc(CCNC(=O)c2cc(Br)c(Br)[nH]2)cc1"
## Output T

## Input API: above_or_equal(metric=inhibition of growth at 25 µM, cutoff=20%) for item "O=C(NCCCn1cccn1)c1cc(Br)c(Br)[nH]1"
## Output F

## Input Does the compound "O=C(NCCc1ccccc1)c1ccc[nH]1" have recorded inhibition of growth at 25 µM that is 20% or more?
## Output F

All values here come from ChEMBL document CHEMBL3112444.
